// reported Trep Concentration 120 min per item
Experiment: Stability in human subcutaneous skin homogenate
reported-property: Trep Concentration 120 min (µM)

>  <molecule>
CCCCCC(CCC1C(O)CC2Cc3c(cccc3OCC(=O)O)CC21)OC(=O)NC (centres unmarked)

>  <reported-property>
Trep Concentration 120 min

>  <experimental-value>
0

$$$$
>  <molecule>
CCCCCC(CCC1C(O)CC2Cc3c(cccc3OCC(=O)O)CC21)OC(N)=O (centres unmarked)

>  <reported-property>
Trep Concentration 120 min

>  <experimental-value>
0

$$$$
>  <molecule>
CCCCCC(CCC1C(OC(=O)CC)CC2Cc3c(cccc3OCC(=O)O)CC21)OC(=O)CC (centres unmarked) [Prodrug LXX, treprostinil dipropionate]

>  <reported-property>
Trep Concentration 120 min

>  <experimental-value>
0.0972

$$$$
>  <molecule>
CCCCCC(CCC1C(O)CC2Cc3c(cccc3OCC(=O)O)CC21)OC(=O)OCC(=O)O (centres unmarked)

>  <reported-property>
Trep Concentration 120 min

>  <experimental-value>
0

$$$$
>  <molecule>
CCCCCC(CCC1C(O)CC2Cc3c(cccc3OCC(=O)O)CC21)OC(=O)C(C)C (centres unmarked)

>  <reported-property>
Trep Concentration 120 min

>  <experimental-value>
0.657

$$$$
>  <molecule>
CCCCCC(CCC1C(O)CC2Cc3c(cccc3OCC(=O)O)CC21)OCOC(=O)C(C)(C)C (centres unmarked)

>  <reported-property>
Trep Concentration 120 min

>  <experimental-value>
1.3

$$$$
>  <molecule>
CCCCCC(CCC1C(O)CC2Cc3c(cccc3OCC(=O)O)CC21)OC(=O)OCC (centres unmarked)

>  <reported-property>
Trep Concentration 120 min

>  <experimental-value>
0.53

$$$$
>  <molecule>
CCCCCC(CCC1C(O)CC2Cc3c(cccc3OCC(=O)O)CC21)OC(=O)COc1ccc(O)cc1 (centres unmarked)

>  <reported-property>
Trep Concentration 120 min

>  <experimental-value>
0.848

$$$$
